Source listed as patent US20230348450A1.

- tested-on: hBPGM (Homo sapiens (Human), UniProt P07738)
- Sequence (P07738 whole entry, looked up): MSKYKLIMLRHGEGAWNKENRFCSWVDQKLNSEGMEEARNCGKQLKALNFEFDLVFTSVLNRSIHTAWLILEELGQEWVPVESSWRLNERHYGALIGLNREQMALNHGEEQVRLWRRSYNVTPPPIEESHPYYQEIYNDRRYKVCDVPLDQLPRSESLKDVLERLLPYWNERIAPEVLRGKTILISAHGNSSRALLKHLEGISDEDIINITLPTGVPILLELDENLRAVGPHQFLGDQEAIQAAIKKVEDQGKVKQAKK
assay-readout: log10(IC50) (log10 of the value in nM)
Hello, just confirming the data are log10 of IC50 with units of nM.

Answered cases to consult:
Cc1nc(Cc2cccnc2)sc1-c1cccc(-c2cc(O)c(C(=O)O)cc2F)c1 : 2.60
Cc1cc(-c2ccc(C(=O)O)cc2)cc(-c2sc(C)nc2C)c1 : 5.20
Cc1nc(C)c(-c2nc(-c3cc(O)c(C(=O)O)cc3F)sc2C)s1 : 4.32
Cc1nc(COc2ncccn2)sc1-c1cccc(-c2c[nH]c(C(=O)O)c2)n1 : 3.54
CC(=O)Nc1nc(C)c(-c2csc(-c3cc(O)c(C(=O)O)cc3F)n2)s1 : 2.40
Cc1nc(C(=O)O)sc1-c1cccc(-c2cc(F)c3[nH]nnc3c2F)n1 : 3.28
Cc1nc(C)c(-c2cncc(-c3ccc(C(=O)O)c(O)c3)c2)s1 : 4.40
Cc1nc(Cc2cccc(C#N)c2)sc1-c1cccc(-c2ccc(C(=O)O)c(O)c2)c1 : 3.00

// switching to the query compound
Inquiry: log10(IC50) of COC(=O)NCc1nc(C)c(-c2csc(-c3cc(O)c(CC(=O)O)cc3F)n2)s1 on hBPGM (Homo sapiens (Human), UniProt P07738)?
Reply text: 3.84
